Test system: 168753-222-R-J1-PDC complex spheroid viability;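 further: luminescence signal used as surrogate for viable cell amount; viability measured after seven days of drug exposure; 100% = DMSO vehicle control wells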
test.name: Anticancer human tumor 168753-222-R-J1-PDC patient-derived bladder carcinoma cell line growth inhibition [CLK]
conditions: second compound 0.316 µM; first compound 0.1 µM; active compounds read low
Listed here: items and their measured viability, T/C.
test.readout: viability, T/C (%)

compound | test.readout | observed.result
COc1cccc2c1C(=O)c1c(O)c3c(c(O)c1C2=O)CC(O)(C(=O)CO)CC3OC1CC(N)C(O)C(C)O1 (stereo not drawn) + CN1CCN(c2cc(C(=O)Nc3cc4cc(-c5cnn(C)c5)ccc4cn3)ccn2)CC1 | viability, T/C | 8.74
C#Cc1c(F)ccc2cc(O)cc(-c3ncc4c(N5CC6CCC(C5)N6)nc(OCC56CCCN5CC(F)C6)nc4c3F)c12 (stereo not drawn) + CN1CCN(c2cc(C(=O)Nc3cc4cc(-c5cnn(C)c5)ccc4cn3)ccn2)CC1 | viability, T/C | 14.6
CC(=O)O[C@H]1C(=O)[C@@]2(C)[C@H]([C@H](OC(=O)c3ccccc3)[C@]3(O)C[C@H](OC(=O)[C@H](O)[C@@H](NC(=O)c4ccccc4)c4ccccc4)C(C)=C1C3(C)C)[C@]1(OC(C)=O)CO[C@@H]1C[C@@H]2O + CN1CCN(c2cc(C(=O)Nc3cc4cc(-c5cnn(C)c5)ccc4cn3)ccn2)CC1 | viability, T/C | 10.2
COc1cccc2c1C(=O)c1c(O)c3c(c(O)c1C2=O)CC(O)(C(=O)CO)CC3OC1CC(N)C(O)C(C)O1 (stereo not drawn) + CNC(=O)c1ccc(Nc2nc(OC3CCCC3)c3c(-c4ccc5nc(C)oc5c4)c[nH]c3n2)c(OC)c1 | viability, T/C | 57.7
O=c1[nH]cc(F)c(=O)[nH]1 + CNC(=O)c1ccc(Nc2nc(OC3CCCC3)c3c(-c4ccc5nc(C)oc5c4)c[nH]c3n2)c(OC)c1 | viability, T/C | 77.3
CC(CO)NC(=O)c1cc(-c2ccc(Cl)cc2)nn(-c2cnn(C)c2)c1=O (stereo not drawn) + CNC(=O)c1ccc(Nc2nc(OC3CCCC3)c3c(-c4ccc5nc(C)oc5c4)c[nH]c3n2)c(OC)c1 | viability, T/C | 76.8
Nc1ccn(C2OC(CO)C(O)C2(F)F)c(=O)n1 (stereo not drawn) + CN1CCN(c2cc(C(=O)Nc3cc4cc(-c5cnn(C)c5)ccc4cn3)ccn2)CC1 | viability, T/C | 10.4
C=CC(=O)N1CCN(c2nc(=O)n(-c3c(C)ccnc3C(C)C)c3nc(-c4c(O)cccc4F)c(F)cc23)C(C)C1 (stereo not drawn) + CN1CCN(c2cc(C(=O)Nc3cc4cc(-c5cnn(C)c5)ccc4cn3)ccn2)CC1 | viability, T/C | 13.4
CC(Nc1ccc2c(c1)OCCn1cc(N3C(=O)OCC3C(F)F)nc1-2)C(N)=O (stereo not drawn) + CNC(=O)c1ccc(Nc2nc(OC3CCCC3)c3c(-c4ccc5nc(C)oc5c4)c[nH]c3n2)c(OC)c1 | viability, T/C | 23.5
CC1COCCN1c1cc(C2(S(C)(=N)=O)CC2)nc(-c2ccnc3[nH]ccc23)n1 (stereo not drawn) + CNC(=O)c1ccc(Nc2nc(OC3CCCC3)c3c(-c4ccc5nc(C)oc5c4)c[nH]c3n2)c(OC)c1 | viability, T/C | 72.2
COC1C=CCC(C)C(C)S(=O)(=O)NC(=O)c2ccc3c(c2)N(CC2CCC21)CC1(CCCc2cc(Cl)ccc21)CO3 (stereo not drawn) + CN1CCN(c2cc(C(=O)Nc3cc4cc(-c5cnn(C)c5)ccc4cn3)ccn2)CC1 | viability, T/C | 12.4
COC1C=CCC(C)C(C)S(=O)(=O)NC(=O)c2ccc3c(c2)N(CC2CCC21)CC1(CCCc2cc(Cl)ccc21)CO3 (stereo not drawn) + CNC(=O)c1ccc(Nc2nc(OC3CCCC3)c3c(-c4ccc5nc(C)oc5c4)c[nH]c3n2)c(OC)c1 | viability, T/C | 74
Cn1ncnc1[C@H]1c2n[nH]c(=O)c3cc(F)cc(c23)N[C@@H]1c1ccc(F)cc1 + CNC(=O)c1ccc(Nc2nc(OC3CCCC3)c3c(-c4ccc5nc(C)oc5c4)c[nH]c3n2)c(OC)c1 | viability, T/C | 77.2
